system: TO-3-N3 (biotin conjugate); test: pull-down binding Z-score (relative to library population); higher = stronger binding; settings: RNA library: Library-2
# binarize pull-down binding Z-score: threshold -0.1 inclusive, high side true (1), low side false (0)

Below, 8 sequences whose answers are already recorded.
[
  {
    "ENTRY_SEQUENCE": "GGGCAGGGAGUCAGAGGGGACCGCCC [hsa-mir-4740]",
    "ASSIGNED_CLASS": "true (1)"
  },
  {
    "ENTRY_SEQUENCE": "CUCGUCUCUACAAAAAAUUGAGACAGG [hsa-mir-4512]",
    "ASSIGNED_CLASS": "true (1)"
  },
  {
    "ENTRY_SEQUENCE": "UUUGCCAUUAUAAUGGCAAA [hsa-mir-548ae-1]",
    "ASSIGNED_CLASS": "false (0)"
  },
  {
    "ENTRY_SEQUENCE": "GGGUGAGAGUGCUUUCUGAAUGCAGUGCACCC [hsa-mir-500b]",
    "ASSIGNED_CLASS": "true (1)"
  },
  {
    "ENTRY_SEQUENCE": "CUGUGUGAGGACUAGAGGCGG [hsa-mir-4523]",
    "ASSIGNED_CLASS": "true (1)"
  },
  {
    "ENTRY_SEQUENCE": "CGAGGUGG [hsa-mir-4302]",
    "ASSIGNED_CLASS": "true (1)"
  },
  {
    "ENTRY_SEQUENCE": "GGGGAUCUAUCAGAUUCUGGCGAUCUACUCAACUGUCGCCAGUUCACUGGUGCUUUUGGUCUCC [IAV_invivo_HA_4_Motif_19+IAV_invivo_HA_4_Motif_19]",
    "ASSIGNED_CLASS": "true (1)"
  },
  {
    "ENTRY_SEQUENCE": "CUGAGAGUGUCAUGGUGGAGCCUCCG [hsa-mir-4784]",
    "ASSIGNED_CLASS": "true (1)"
  }
]

Qu. Is it the case that AGACAGCCUGAGUUGGAGGCUCAUCUUCACUUCUUGCUGUGU [hsa-mir-3168] has pull-down binding Z-score reaching or exceeding -0.1?
Ans. true (1)

Qu. Is it the case that GACAUCACUUUCUUAAAGAAAGAUGCUCCAUAUAUAGUGGGUGAUGUU [DMSMaPseq_invitro_SARS-CoV-2_Multi_15_ComplexLevel_1] has pull-down binding Z-score reaching or exceeding -0.1?
Ans. true (1)

Qu. Is it the case that GUGAACAUUGCAU [hsa-mir-4301] has pull-down binding Z-score reaching or exceeding -0.1?
Ans. false (0)

Qu. Is it the case that GUGGCACUGAGAAUUUGACUAAAGAAGGUGCCAC has pull-down binding Z-score reaching or exceeding -0.1?
Ans. true (1)

Qu. Is it the case that CUGCCUAUAUGGAAG has pull-down binding Z-score reaching or exceeding -0.1?
Ans. false (0)

Qu. Is it the case that GCCUUGUUGCAUAUGGAUCAAGC [hsa-mir-103a-1] has pull-down binding Z-score reaching or exceeding -0.1?
Ans. false (0)

Qu. Is it the case that AUAUGUUUACACCACUAAUUCAACCUAUUGGUGCUUUGGACAUAU [DMSMaPseq_invitro_SARS-CoV-2_Motif_171] has pull-down binding Z-score reaching or exceeding -0.1?
Ans. false (0)

Qu. Is it the case that GCAUGCCC [hsa-mir-1178] has pull-down binding Z-score reaching or exceeding -0.1?
Ans. true (1)
